Here, each record is paired with measured IC50 data.
- assay.target: Heat shock protein HSP90 (Homo sapiens, UniProt P07900+P08238)
- assay.notes: Inhibition of Hsp90 protein as degradation of HER2 kinase in SKBr3 cells
- Type: functional, cell-based
State the answer as a number, implicitly in µM.

Some entries whose results are on file:
[[record]]
compound = "COc1cc(Sc2nc3c(N)nc(F)nc3n2CCOC(C)C)cc(OC)c1OC"
unit = "µM"
observed_value = 23.5

[[record]]
compound = "CCCCn1c(Sc2cccc(OC)c2)nc2c(N)ncnc21"
unit = "µM"
observed_value = 53.7

[[record]]
compound = "COc1cc(Sc2nc3c(N)ncnc3n2CCOC(C)C)cc(OC)c1OC"
unit = "µM"
observed_value = 65.3

[[record]]
compound = "COc1cc([S+]([O-])c2nc3c(N)ncnc3n2CCOC(C)C)cc(OC)c1OC (stereo unspecified)"
unit = "µM"
observed_value = 43.9

[[record]]
compound = "COc1cccc([S+]([O-])c2nc3c(N)ncnc3n2CCOC(C)C)c1 (stereo unspecified)"
unit = "µM"
observed_value = 70.3


Q) Report IC50 for C#CCCCn1c(Sc2ccc(Cl)cc2)nc2c(N)ncnc21 please.
A) 44.7

Q) Now the same for COc1c(Cl)c(Sc2nc3c(N)ncnc3n2CCOC(C)C)c(Cl)c(OC)c1OC
A) 13.8

Q) Now the same for C#CCCCn1c(Sc2cc(Cl)c(Cl)cc2Cl)nc2c(N)ncnc21
A) 58

Q) Now the same for C#CCCCn1c(Sc2cc(OC)ccc2Br)nc2c(N)ncnc21
A) 1.45

Q) Now the same for COc1cccc(Sc2nc3c(N)ncnc3n2CCOC(C)C)c1
A) 47.6

----------
Here, each record is paired with measured pEC50 data.
- assay.target: Heat shock protein HSP 90-alpha (Mus musculus)
- assay.notes: Displacement of 5 nM GM-BODIPY from mouse heat shock protein HSP90-alpha
Scale for pEC50: -log10 of concentration given in mol/L; no unit attached.

Some entries whose results are on file:
[[record]]
smi = "CCCCn1c(Sc2cc(OC)c(OC)c(OC)c2Cl)nc2c(N)nc(F)nc21"
assay_target = "Heat shock protein HSP 90-alpha (Mus musculus)"
parameter_measured = "pEC50"
observed_value = 5.62

[[record]]
smi = "C#CCCCn1c(Sc2cccc(OC)c2)nc2c(N)ncnc21"
assay_target = "Heat shock protein HSP 90-alpha (Mus musculus)"
parameter_measured = "pEC50"
observed_value = 6.01


Read the next record carefully.
Q) Report pEC50 for COc1cc(Sc2nc3c(N)nc(F)nc3n2CCOC(C)C)cc(OC)c1OC please.
A) 5.60

----------
- assay.target: Heat shock protein HSP 90-alpha (Mus musculus, UniProt P07901)
- assay.notes: Displacement of 5 nM GM-BODIPY from mouse heat shock protein HSP90-alpha
Here, each record is paired with measured EC50 data.

Some entries whose results are on file:
[[record]]
smi = "CCCCn1c(S(=O)(=O)c2cccc(OC)c2)nc2c(N)ncnc21"
observed_value = "> 50 µM"

[[record]]
smi = "C#CCCCn1c(S(=O)(=O)c2cc(OC)c(OC)c(OC)c2)nc2c(N)ncnc21"
observed_value = "> 50 µM"

[[record]]
smi = "C#CCCCn1c(Sc2ccc(-n3cccc3)cc2)nc2c(N)ncnc21"
observed_value = "> 100 µM"


Read the next record carefully.
Q) Report EC50 for C#CCCCn1c(S(=O)(=O)c2cccc(OC)c2)nc2c(N)ncnc21 please.
A) > 50 µM
